RICE crop damage rating values by entry
system: upland rice (Oryza sp., var.Tebonnet, RICE); test: Pre-emerge greenhouse test, crop damage rating; format: in vivo; conditions: Rate 500 g al/ha, 14 days after application, rating scale 0-100

Worked examples follow.
| Compound | Reading |
| --- | --- |
| CC(=O)Nc1ccc(Oc2cc(-n3c(=O)n4n(c3=S)CCCC4)c(F)cc2Cl)c(C(F)(F)F)c1 [Compound 8-16] | 0 |
| COc1nc(OC)nc(Oc2cc(-n3c(=O)n4n(c3=S)CCCC4)c(F)cc2Cl)n1 [Compound 8-34] | 50 |
| O=c1n(-c2cc(Oc3cccc(Cl)n3)c(Cl)cc2F)c(=S)n2n1CCCC2 [Compound 8-26] | 0 |

Kindly consider the entry below.
Would you mind telling me what RICE crop damage rating value was observed for Nc1ccc(Oc2cc(-n3c(=O)n4n(c3=S)CCCC4)c(F)cc2Cl)nc1 [Compound 8-24] ?
20

---

Tested on: upland rice (Oryza sp., var.Tebonnet, RICE)
Assay: Pre-emerge greenhouse test, crop damage rating
Format: in vivo
Conditions: 500 g ai/ha, 14 days after application, rating scale 0-100
Description: A standard greenhouse herbicide activity screening system was used to evaluate the herbicidal efficacy and crop safety of these test compounds. […] At 14 days after application of the test materials, phytotoxicity ratings were recorded. […]
Value kind: crop damage rating RICE
Note: the reply should be a number with no unit written.

Would you mind telling me what crop damage rating RICE value was observed for O=c1n(CCCF)nnn1-c1cc(Oc2ccc(C(F)(F)F)cn2)c(Cl)cc1Cl ?
0

Would you mind telling me what crop damage rating RICE value was observed for O=c1n(-c2cc(Oc3ccc([N+](=O)[O-])cc3)c(Cl)cc2F)c(=S)n2n1CCCC2 ?
0

Would you mind telling me what crop damage rating RICE value was observed for O=c1n(-c2cc(Oc3ccc([N+](=O)[O-])cc3C(F)(F)F)c(Cl)cc2F)c(=S)n2n1CCCC2 ?
0

Would you mind telling me what crop damage rating RICE value was observed for O=c1n(CCCF)nnn1-c1cc(Oc2ncccc2[N+](=O)[O-])c(Cl)cc1F ?
10

Would you mind telling me what crop damage rating RICE value was observed for O=c1n(-c2cc(Oc3ccccc3[N+](=O)[O-])c(Cl)cc2F)c(=S)n2n1CCCC2 ?
40

Would you mind telling me what crop damage rating RICE value was observed for Cc1nn(-c2cc(Oc3ncccn3)c(Cl)cc2F)c(=O)n1C(F)F ?
100

Would you mind telling me what crop damage rating RICE value was observed for Cn1nc(-c2cc(Oc3ncccc3C#N)c(Cl)cc2F)c(Cl)c1C(F)(F)F ?
30

Would you mind telling me what crop damage rating RICE value was observed for O=c1n(CCCF)nnn1-c1cc(Oc2ncccc2C(F)(F)F)c(Cl)cc1F ?
30

Would you mind telling me what crop damage rating RICE value was observed for Cn1nc(-c2cc(Oc3ncccn3)c(Cl)cc2F)c(Cl)c1C(F)(F)F ?
90

Would you mind telling me what crop damage rating RICE value was observed for CCOC(=O)C(C)Oc1ccc(Oc2cc(-n3c(=O)n4n(c3=S)CCCC4)c(F)cc2Cl)cc1 (stereo not drawn) ?
80

Would you mind telling me what crop damage rating RICE value was observed for O=c1n(CCCF)nnn1-c1cc(Oc2ncccn2)c(Cl)cc1Cl ?
80

Would you mind telling me what crop damage rating RICE value was observed for O=c1n(CCCF)nnn1-c1cc(Oc2ncccc2[N+](=O)[O-])c(Cl)cc1Cl ?
20

Would you mind telling me what crop damage rating RICE value was observed for COc1cc(OC)nc(Oc2cc(-n3nnn(CCCF)c3=O)c(F)cc2Cl)n1 ?
10

Would you mind telling me what crop damage rating RICE value was observed for Nc1ccc(Oc2cc(-n3c(=O)n4n(c3=S)CCCC4)c(F)cc2Cl)c(C(F)(F)F)c1 ?
0

Would you mind telling me what crop damage rating RICE value was observed for CS(=O)(=O)Nc1ccc(Oc2cc(-n3c(=O)cc4n(c3=O)CCC4)c(F)cc2Cl)cc1 ?
0

Would you mind telling me what crop damage rating RICE value was observed for O=c1n(-c2cc(Oc3ccccc3)c(Cl)cc2F)c(=S)n2n1CCCC2 ?
25

Would you mind telling me what crop damage rating RICE value was observed for Cc1nsc(Oc2cc(-n3nnn(CCCF)c3=O)c(F)cc2Cl)c1[N+](=O)[O-] ?
0

Would you mind telling me what crop damage rating RICE value was observed for Cn1c(C(F)(F)F)nc(-c2cc(Oc3ncccn3)c(Cl)cc2F)c1Cl ?
55

Would you mind telling me what crop damage rating RICE value was observed for CCN1CC(=O)N(c2cc(Oc3ncccn3)c(Cl)cc2F)C1=O ?
90

Would you mind telling me what crop damage rating RICE value was observed for N#Cc1cc([N+](=O)[O-])ccc1Oc1cc(-n2c(=O)n3n(c2=S)CCCC3)c(F)cc1Cl ?
50

Would you mind telling me what crop damage rating RICE value was observed for Cn1c(C(F)(F)F)nc(-c2cc(Oc3ncccc3[N+](=O)[O-])c(Cl)cc2F)c1Cl ?
0

---

SOY crop damage rating (0-100) values by entry
system: soybean (Glycine max L., var. Pella 86, SOY); test: Post-emerge greenhouse test, crop damage rating; assay type: in vivo; settings: 63 g al/ha, 14 days after application
Note: the reply should be a number with no unit written.

Worked examples follow.
| Smi | SOY crop damage rating (0-100) |
| --- | --- |
| Nc1ccc(Oc2cc(-n3c(=O)n4n(c3=S)CCCC4)c(F)cc2Cl)c(C(F)(F)F)c1 | 20 |
| Cc1nsc(Oc2cc(-n3nnn(CCCF)c3=O)c(F)cc2Cl)c1[N+](=O)[O-] | 0 |
| O=c1n(CCCF)nnn1-c1cc(Oc2ncccc2C(F)(F)F)c(Cl)cc1Cl | 0 |

Kindly consider the entry below.
Would you mind telling me what SOY crop damage rating (0-100) value was observed for CC(=O)Nc1ccc(Oc2cc(-n3c(=O)n4n(c3=S)CCCC4)c(F)cc2Cl)c(C(F)(F)F)c1 ?
10

---

System: upland rice (Oryza sp., var.Tebonnet, RICE)
Test: Pre-emerge greenhouse test, crop damage rating
Assay type: in vivo
Settings: 125 g ai/ha, 14 days after application, rating scale 0-100
Method: A standard greenhouse herbicide activity screening system was used to evaluate the herbicidal efficacy and crop safety of these test compounds. […] At 14 days after application of the test materials, phytotoxicity ratings were recorded. […]
crop damage rating RICE values by entry
Note: the reply should be a number with no unit written.

Worked examples follow.
| Compound | crop damage rating RICE |
| --- | --- |
| Cn1nc(-c2cc(Oc3cccc(F)n3)c(Cl)cc2F)c(Cl)c1C(F)(F)F | 30 |
| O=c1n(CCCF)nnn1-c1cc(Oc2ncccn2)c(Cl)cc1Cl | 30 |

Kindly consider the entry below.
Would you mind telling me what crop damage rating RICE value was observed for N#Cc1ccccc1Oc1cc(-n2c(=O)n3n(c2=S)CCCC3)c(F)cc1Cl ?
20

---

Test system: upland rice (Oryza sp., var.Tebonnet, RICE)
Experiment: Pre-emerge greenhouse test, crop damage rating
Type: in vivo
Conditions: Rate 500 g al/ha, 14 days after application, rating scale 0-100
Procedure: A standard greenhouse herbicide activity screening system was used to evaluate the herbicidal efficacy and crop safety of these test compounds. […] At 14 days after application of the test materials, phytotoxicity ratings were recorded. […]
Label 1.0 when RICE crop damage rating >= 70; otherwise 0.0.

Before answering, review these 5 worked examples.
| Smi | Class label |
| --- | --- |
| O=c1n(-c2cc(Oc3nccc(Cl)n3)c(Cl)cc2F)c(=S)n2n1CCCC2 | 0.0 |
| O=c1n(-c2cc(Oc3ncccc3[N+](=O)[O-])c(Cl)cc2F)c(=S)n2n1CCCC2 | 1.0 |
| CS(=O)(=O)c1cccnc1Oc1cc(-n2c(=O)n3n(c2=S)CCCC3)c(F)cc1Cl | 1.0 |
| O=c1n(-c2cc(Oc3ccccn3)c(Cl)cc2F)c(=S)n2n1CCCC2 | 1.0 |
| COc1cc(Oc2cc(-n3c(=O)n4n(c3=S)CCCC4)c(F)cc2Cl)nc(OC)n1 | 0.0 |

Let's switch to this compound now.
Could you verify whether the entry O=c1n(-c2cc(Oc3ccc([N+](=O)[O-])cn3)c(Cl)cc2F)c(=S)n2n1CCCC2 shows RICE crop damage rating of no less than 70?
0.0

---

system: field corn (Zea mays L., var. Dekalb 535, CORN); assay: Post-emerge greenhouse test, crop damage rating; type: in vivo; details: 500 g al/ha, 14 days after application
Value kind: CORN crop damage rating (0-100)
Note: the reply should be a number with no unit written.

Worked examples follow.
| Molecule | Reading |
| --- | --- |
| N#Cc1cccnc1Oc1cc(-n2nnn(CCCF)c2=O)c(F)cc1Cl | 20 |
| CS(=O)(=O)Nc1ccc(Oc2cc(-n3c(=O)cc4n(c3=O)CCC4)c(F)cc2Cl)cc1 | 0 |

Would you mind telling me what CORN crop damage rating (0-100) value was observed for O=c1n(CCCF)nnn1-c1cc(Oc2ncccc2[N+](=O)[O-])c(Cl)cc1Cl ?
0

Would you mind telling me what CORN crop damage rating (0-100) value was observed for N#Cc1cc([N+](=O)[O-])ccc1Oc1cc(-n2c(=O)n3n(c2=S)CCCC3)c(F)cc1Cl ?
0

Would you mind telling me what CORN crop damage rating (0-100) value was observed for Cn1nc(-c2cc(Oc3nc(F)c(F)cc3F)c(Cl)cc2F)c(Cl)c1C(F)(F)F ?
10

Would you mind telling me what CORN crop damage rating (0-100) value was observed for O=c1sc(=Nc2cc(Oc3ncccn3)c(Cl)cc2F)n2n1CCCC2 ?
90

Reference source for all entries: patent US6479435B1
